Source: patent US11180474B2

target: UniProtKB Q9NYK1; assay: TLR7 inhibition reporter assay (HEK-Blue cells, SEAP reporter, gardiquimod stimulation); details: HEK-Blue cells overexpressing human TLR7, gardiquimod 7.5 μM
pIC50: −log10 of the molar value.

- compound: "CCc1c(-c2ccc(OC)c(OC)c2)[nH]c2ccc(C3CCN(C(=O)C(C)(C)OC(C)=O)CC3)cc12"
  pIC50: 5.77
- compound: "COc1ccc(-c2[nH]c3ccc(C4CCN(C5CCN(C6CCC(C)CC6)CC5)CC4)cc3c2C)cc1OC (stereo not shown)"
  pIC50: 6.36
- compound: "COc1ccc(-c2[nH]c3ccc(C4CCN(CC(=O)N(C)C)CC4)cc3c2C(C)C)cc1OC"
  pIC50: 8.10
- compound: "COc1ccc(-c2[nH]c3ccc(C4CCN(C5CCN(C6CCC(O)CC6)CC5)CC4)cc3c2C)cc1OC (stereo not shown)"
  pIC50: 6.31
- compound: "CCc1c(-c2ccc(OC)c(OC)c2)[nH]c2ccc(C3CCN(C(=O)CNC4CCC(N(C)C)CC4)CC3)cc12 (stereo not shown)"
  pIC50: 7.06
- compound: "CCc1c(-c2ccc(OC)c(OC)c2)[nH]c2ccc(C3CCN(C(=O)CN4CCCC(C(=O)N(CC)CC)C4)CC3)cc12 (single isomer, unassigned) [Example 179]"
  pIC50: 6.55
- compound: "COc1ccc(-c2[nH]c3ccc(C4CCN(C(=O)CN5CCCN(C)CC5)CC4)cc3c2C)cc1OC"
  pIC50: 5.41

----------
target: human TLR8 (Homo sapiens, UniProt Q9NR97); assay: TLR8 inhibition reporter assay (HEK-Blue cells, SEAP reporter, R848 stimulation); conditions: HEK-Blue cells overexpressing human TLR8, R848 15.9 μM
Sequence (Q9NR97 27-1041): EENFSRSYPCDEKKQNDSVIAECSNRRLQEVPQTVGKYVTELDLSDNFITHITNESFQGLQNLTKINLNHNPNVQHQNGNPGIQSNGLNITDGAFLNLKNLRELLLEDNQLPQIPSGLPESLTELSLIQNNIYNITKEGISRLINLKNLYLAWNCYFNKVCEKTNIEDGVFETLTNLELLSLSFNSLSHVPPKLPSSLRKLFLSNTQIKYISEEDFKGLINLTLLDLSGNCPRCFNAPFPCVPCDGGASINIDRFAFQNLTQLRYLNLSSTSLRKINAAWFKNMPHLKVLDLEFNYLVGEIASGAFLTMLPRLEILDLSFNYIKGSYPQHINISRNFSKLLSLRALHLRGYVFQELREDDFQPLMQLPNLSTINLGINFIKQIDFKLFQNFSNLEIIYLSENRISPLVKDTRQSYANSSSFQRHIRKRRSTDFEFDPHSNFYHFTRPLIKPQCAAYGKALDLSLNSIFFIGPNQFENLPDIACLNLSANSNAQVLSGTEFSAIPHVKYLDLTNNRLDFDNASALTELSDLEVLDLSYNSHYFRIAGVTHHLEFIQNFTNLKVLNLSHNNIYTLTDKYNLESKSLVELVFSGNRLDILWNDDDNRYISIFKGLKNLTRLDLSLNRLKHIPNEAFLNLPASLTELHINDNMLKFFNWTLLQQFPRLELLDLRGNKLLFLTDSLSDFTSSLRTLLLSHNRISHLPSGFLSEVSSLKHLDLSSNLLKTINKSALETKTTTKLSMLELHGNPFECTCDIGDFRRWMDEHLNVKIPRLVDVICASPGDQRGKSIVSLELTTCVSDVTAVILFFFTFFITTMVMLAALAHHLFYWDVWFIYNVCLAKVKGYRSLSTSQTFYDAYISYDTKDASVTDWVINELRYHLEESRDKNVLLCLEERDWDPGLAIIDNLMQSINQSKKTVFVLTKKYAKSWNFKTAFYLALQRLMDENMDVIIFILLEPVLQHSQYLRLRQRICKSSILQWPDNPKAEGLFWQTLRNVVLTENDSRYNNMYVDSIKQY
pIC50: −log10 of the molar value. Counter-ions that a name gives are not always drawn.

- compound: "COc1ccc(-c2[nH]c3ccc(C4CCN(C5CCN(CC(C)C)CC5)CC4)cc3c2C)cc1OC"
  limit qualifier: "="
  pIC50: 6.61
- compound: "COc1ccc(-c2[nH]c3ccc(C4CCN(CC(=O)N5CC[C@H](O)C5)CC4)cc3c2C(C)C)cc1OC"
  limit qualifier: "="
  pIC50: 7.96
- compound: "COc1ccc(-c2[nH]c3ccc(C4CCN(C5CCNCC5)CC4)cc3c2C(C)C)cc1OC [Example 197, dihydrochloride]"
  limit qualifier: "="
  pIC50: 7.60
- compound: "COc1ccc(-c2[nH]c3ccc(C4CCN(C5CCN(Cc6ccccc6)CC5)CC4)cc3c2C)cc1OC"
  limit qualifier: "="
  pIC50: 6.34
- compound: "C#CCCCCC(=O)NCCN1CCC(c2ccc3[nH]c(-c4ccc(OC)c(OC)c4)c(C(C)C)c3c2)CC1"
  limit qualifier: "="
  pIC50: 7.44
- compound: "CNCC(=O)N1CCC(c2ccc3[nH]c(-c4ccc(OC)c(OC)c4)c(C(C)C)c3c2)CC1"
  limit qualifier: "="
  pIC50: 7.46
- compound: "COc1ccc(-c2[nH]c3ccc(C4CCN(CC(=O)NCCc5ccc(S(N)(=O)=O)cc5)CC4)cc3c2CC(F)(F)F)cc1OC"
  limit qualifier: "="
  pIC50: 7.09
- compound: "COc1ccc(-c2[nH]c3ccc(C4CCN(Cc5cncn5C)CC4)cc3c2C(C)C)cc1OC"
  limit qualifier: "="
  pIC50: 7.77
- compound: "COc1ccc(-c2[nH]c3ccc(C4CCN(C(=O)CN5CCC[C@H](C(=O)N6CCCC(O)C6)C5)CC4)cc3c2C(C)C)cc1OC (stereo partly shown)"
  limit qualifier: "="
  pIC50: 7.66
- compound: "COc1ccc(-c2[nH]c3ccc(C4CCN(CC(=O)N5CCN(c6ccncc6)CC5)CC4)cc3c2CC(F)(F)F)cc1OC"
  limit qualifier: "="
  pIC50: 7.64
- compound: "COc1ccc(-c2[nH]c3ccc(C4CCN(C(=O)CNCC(C)(C)CO)CC4)cc3c2C(C)C)cc1OC"
  limit qualifier: "="
  pIC50: 7.41
- compound: "COc1ccc(-c2[nH]c3ccc(C4CCN(C(=O)CN(C)C)CC4)cc3c2C)cc1OC"
  limit qualifier: "="
  pIC50: 5.64
- compound: "COc1ccc(-c2[nH]c3ccc(C4CCN(C(=O)Cc5c[nH]c6ccccc56)CC4)cc3c2CC(F)(F)F)cc1OC"
  limit qualifier: "="
  pIC50: 5.39
- compound: "CCc1c(-c2ccc(OC)c(OC)c2)[nH]c2ccc(C3CCNCC3)cc12"
  limit qualifier: "="
  pIC50: 7.59
- compound: "COc1ccc(-c2[nH]c3ccc(C4CCN(C(=O)CNC56CC7CC(CC(C7)C5)C6)CC4)cc3c2C(C)C)cc1OC"
  limit qualifier: "="
  pIC50: 6.42
- compound: "COc1ccc(-c2[nH]c3ccc(C4CCN(C(=O)Cc5cccnc5)CC4)cc3c2CC(F)(F)F)cc1OC"
  limit qualifier: "="
  pIC50: 6.20
- compound: "COc1ccc(-c2[nH]c3ccc(C4CCN(C(=O)CNC56CC7CC(CC(O)(C7)C5)C6)CC4)cc3c2C(C)C)cc1OC"
  limit qualifier: "="
  pIC50: 7.27
- compound: "COc1ccc(-c2[nH]c3ccc(C4CCN(CC(=O)NCCS(=O)(=O)O)CC4)cc3c2CC(F)(F)F)cc1OC"
  limit qualifier: "="
  pIC50: 6.23
- compound: "COc1ccc(-c2[nH]c3ccc(C4CCN(C(=O)CN5CCC(O)CC5)CC4)cc3c2C(C)C)cc1OC"
  limit qualifier: "="
  pIC50: 8.30
- compound: "CCN(CC)C(=O)C1CCCN(CC(=O)N2CCC(c3ccc4[nH]c(-c5ccc(OC)c(OC)c5)c(C5CCOCC5)c4c3)CC2)C1 (stereo not shown) [Example 391]"
  limit qualifier: "="
  pIC50: 6.45
- compound: "CCc1c(-c2ccc(OC)c(OC)c2)[nH]c2ccc(C3CCN(C4CCN(Cc5cc(C)nn5C)CC4)CC3)cc12"
  limit qualifier: "≤"
  pIC50: 4.30
- compound: "COc1ccc(-c2[nH]c3ccc(C4CCN(C(=O)CN[C@H](CO)CC(C)C)CC4)cc3c2C(C)C)cc1OC"
  limit qualifier: "="
  pIC50: 7.20
- compound: "COc1ccc(-c2[nH]c3ccc(C4CCN(C5C[C@H]6CC[C@@H](C5)N6C)CC4)cc3c2C)cc1OC (stereo partly shown)"
  limit qualifier: "="
  pIC50: 6.62
- compound: "COc1ccc(-c2[nH]c3ccc(C4CCN(CC(=O)N5CCC[C@@H]5CO)CC4)cc3c2CC(F)(F)F)cc1OC"
  limit qualifier: "="
  pIC50: 7.28
- compound: "COc1ccc(-c2[nH]c3ccc(C4CCN(C5CCN(CC6CC6)CC5)CC4)cc3c2C(C)C)cc1OC"
  limit qualifier: "="
  pIC50: 7.66
- compound: "COc1ccc(-c2[nH]c3ccc(C4CCN(C(=O)CN5CCCC(C(=O)N(C)C)C5)CC4)cc3c2CC(F)(F)F)cc1OC (stereo not shown)"
  limit qualifier: "="
  pIC50: 7.33
- compound: "COc1ccc(-c2[nH]c3ccc(C4CCN(C(=O)NCCc5ccccc5)CC4)cc3c2CC(F)(F)F)cc1OC"
  limit qualifier: "="
  pIC50: 6.03
- compound: "COc1ccc(-c2[nH]c3ccc(C4CCN(C(=O)CCn5cccc5)CC4)cc3c2CC(F)(F)F)cc1OC"
  limit qualifier: "="
  pIC50: 5.85

----------
target: human TLR7 (Homo sapiens, UniProt Q9NYK1); experiment: TLR7 inhibition reporter assay (HEK-Blue cells, SEAP reporter, gardiquimod stimulation); details: HEK-Blue cells overexpressing human TLR7, gardiquimod 7.5 μM
Sequence (Q9NYK1 27-1049): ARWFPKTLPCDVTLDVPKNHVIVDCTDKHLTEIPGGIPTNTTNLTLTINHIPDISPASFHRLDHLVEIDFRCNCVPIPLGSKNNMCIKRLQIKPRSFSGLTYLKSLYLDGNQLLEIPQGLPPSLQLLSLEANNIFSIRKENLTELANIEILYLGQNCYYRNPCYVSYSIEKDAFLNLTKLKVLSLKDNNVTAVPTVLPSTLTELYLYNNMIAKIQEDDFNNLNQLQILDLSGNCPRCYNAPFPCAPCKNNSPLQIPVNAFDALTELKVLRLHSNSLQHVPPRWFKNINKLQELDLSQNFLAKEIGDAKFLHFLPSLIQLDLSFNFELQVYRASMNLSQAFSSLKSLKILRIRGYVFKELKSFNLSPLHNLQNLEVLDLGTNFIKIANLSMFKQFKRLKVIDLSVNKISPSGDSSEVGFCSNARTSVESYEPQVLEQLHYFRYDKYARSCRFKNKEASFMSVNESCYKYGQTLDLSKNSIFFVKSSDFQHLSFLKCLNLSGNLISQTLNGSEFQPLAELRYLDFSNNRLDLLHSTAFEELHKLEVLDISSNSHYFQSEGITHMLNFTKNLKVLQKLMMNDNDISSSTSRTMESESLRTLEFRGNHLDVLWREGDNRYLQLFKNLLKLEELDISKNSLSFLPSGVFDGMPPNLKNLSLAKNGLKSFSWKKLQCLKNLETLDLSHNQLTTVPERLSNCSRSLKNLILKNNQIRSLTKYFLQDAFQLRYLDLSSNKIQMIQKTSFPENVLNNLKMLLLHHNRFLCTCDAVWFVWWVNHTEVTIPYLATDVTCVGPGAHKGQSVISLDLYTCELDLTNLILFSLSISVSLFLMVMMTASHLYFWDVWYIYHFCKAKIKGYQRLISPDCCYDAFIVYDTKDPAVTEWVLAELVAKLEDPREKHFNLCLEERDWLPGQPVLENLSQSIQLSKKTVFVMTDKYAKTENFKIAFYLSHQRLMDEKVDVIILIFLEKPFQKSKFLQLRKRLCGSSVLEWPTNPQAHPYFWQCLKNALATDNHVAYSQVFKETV
pIC50: −log10 of the molar value.

- molecule: "CCc1c(-c2ccc(OC)c(OC)c2)[nH]c2ccc(C3CCN(C4CCN(Cc5cnc(C)[nH]5)CC4)CC3)cc12"
  limit qualifier: "="
  pIC50: 5.83
- molecule: "COc1ccc(-c2[nH]c3ccc(C4CCN(Cc5ccc(N(C)C)cc5)CC4)cc3c2C)cc1OC"
  limit qualifier: "="
  pIC50: 5.98
- molecule: "COc1ccc(-c2[nH]c3ccc(C4CCN(CCN)CC4)cc3c2C)cc1OC"
  limit qualifier: "="
  pIC50: 6.76
- molecule: "COc1ccc(-c2[nH]c3ccc(C4CCN(C5CCN(c6ccccc6)C5)CC4)cc3c2C)cc1OC (stereo not drawn)"
  limit qualifier: "≤"
  pIC50: 4.30
- molecule: "CCc1c(-c2ccc(OC)c(OC)c2)[nH]c2ccc(C3CCN(C4CCN(Cc5c[nH]cn5)CC4)CC3)cc12"
  limit qualifier: "="
  pIC50: 6.74
- molecule: "COc1ccc(-c2[nH]c3ccc(C4CCN(C(=O)CN5CCOCC5)CC4)cc3c2C(C)C)cc1OC"
  limit qualifier: "="
  pIC50: 7.32
- molecule: "COc1ccc(-c2[nH]c3ccc(C4CCN(C(=O)CN(C)C)CC4)cc3c2C2CCOCC2)cc1OC"
  limit qualifier: "="
  pIC50: 6.61
- molecule: "COc1ccc(-c2[nH]c3ccc(C4CCN(C(=O)CN(C)C)CC4)cc3c2CC(F)(F)F)cc1OC"
  limit qualifier: "="
  pIC50: 7.66
- molecule: "COc1ccc(-c2[nH]c3ccc(C4CCN(CC(=O)N5CC[C@H](N(C)C)C5)CC4)cc3c2CC(F)(F)F)cc1OC"
  limit qualifier: "="
  pIC50: 8.05
- molecule: "COc1ccc(-c2[nH]c3ccc(C4CCN(C5CCN(C(C)=O)CC5)CC4)cc3c2C)cc1OC"
  limit qualifier: "="
  pIC50: 5.87
- molecule: "COc1ccc(-c2[nH]c3ccc(C4CCN(CC(=O)N5CCN(C(C)=O)CC5)CC4)cc3c2CC(F)(F)F)cc1OC"
  limit qualifier: "="
  pIC50: 7.00
- molecule: "CCCc1c(-c2ccc(OC)c(OC)c2)[nH]c2ccc(C3CCN(C4CCN(CC(C)C)CC4)CC3)cc12"
  limit qualifier: "="
  pIC50: 6.18
- molecule: "COc1ccc(-c2[nH]c3ccc(C4CCN(C(=O)Cc5cnccn5)CC4)cc3c2CC(F)(F)F)cc1OC"
  limit qualifier: "="
  pIC50: 6.62
- molecule: "COc1ccc(-c2[nH]c3cc(C)c(C4CCNCC4)cc3c2C(C)C)cc1OC"
  limit qualifier: "="
  pIC50: 5.63
- molecule: "CCN(C)CCN1CCC(c2ccc3[nH]c(-c4ccc(OC)c(OC)c4)c(C)c3c2)CC1"
  limit qualifier: "="
  pIC50: 6.41
